// switch fluorescence ratio lookup, one value per entry
test system: ATP; assay: switch fluorescence ratio, 500 uM ATP over buffer (Cy3 cluster intensity, sum of 5 cycles each) (fold (ratio)); higher = stronger signal-on switching upon ATP binding; sequences stand for … in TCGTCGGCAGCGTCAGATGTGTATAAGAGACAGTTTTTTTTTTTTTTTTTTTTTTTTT…TC; settings: aptamer strand: ATP DNA aptamer (quencher-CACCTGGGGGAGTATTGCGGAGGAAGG + anchor), 100 nM annealed; ATP concentration: 500 uM;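 further: ATP exposure 15 min at 22 °C before imaging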
EXPERIMENTAL READOUT: switch fluorescence ratio

TGAGTCGGGA = 1.01
AGCCTTAGGG = 1
ATTATTAATG = 0.992
GGAAGGGCGG = 1.01
TTAACAATCG = 1.02
GCGATTAAG = 0.981
AGTGGGGGTT = 0.983
AACAGAAATA = 1.01
ATGGGTTTTT = 0.979
GGTGGTGGCC = 1.01
CCTAGGGTCA = 1.01
GTGGGGGAAG = 0.993

###

tested on: ATP; experiment: switch fluorescence ratio, 500 uM ATP over buffer (Cy3 cluster intensity, sum of 5 cycles each) (fold (ratio)); higher = stronger signal-on switching upon ATP binding; sequences stand for … in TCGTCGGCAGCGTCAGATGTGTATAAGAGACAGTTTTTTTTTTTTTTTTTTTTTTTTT…TC; details: aptamer strand: ATP DNA aptamer (quencher-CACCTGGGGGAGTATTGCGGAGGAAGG + anchor), 100 nM annealed; ATP concentration: 500 uM;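 further: ATP exposure 15 min at 22 °C before imaging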
// switch fluorescence ratio lookup, one value per entry
EXPERIMENTAL READOUT: switch fluorescence ratio

ATATATTGGC = 1.02
GGAGGGTTGT = 0.979
ATTCATTTTG = 1.02
CTCGTTCCTG = 1
GGGGATTGGG = 0.987
AGTTTGACTC = 0.997
ATGGATTTAA = 1.01
GGGAGGCGAT = 0.975
TGGCGTAGGT = 1
CAGCAGAGGG = 1.01
GTCGGTTGTG = 0.974
GACGATGTCT = 1.01
CGTCGGGGTT = 0.973
ACTAATAAGA = 1.01
GGGGGCACG = 1.01
CCAGACAGC = 1.01
GATTAAGGAG = 0.995
TTTGGTTCCT = 1.01
GATTTTCCAT = 1.03
TTTTAAGATT = 0.999
TAATAGGGAT = 0.98
TATGTACGCA = 1.11
TATTCTCATC = 1.01
GTTTGGAGGT = 0.992
AGAAATGAAT = 1.04
GCCTATATTT = 0.994
TCTTTGATCT = 1.02
GCCAATACCA = 1.22
AGACTACTAC = 1.12
GGACGGGGGA = 1.02
TCTGGGAAGG = 1.01
GCCGTTCTTA = 1.05

###

tested on: ATP; assay: switch fluorescence ratio, 500 uM ATP over buffer (Cy3 cluster intensity, sum of 5 cycles each) (fold (ratio)); higher = stronger signal-on switching upon ATP binding; sequences stand for … in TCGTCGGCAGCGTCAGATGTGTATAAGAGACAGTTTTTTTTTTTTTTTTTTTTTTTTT…TC; conditions: aptamer strand: ATP DNA aptamer (quencher-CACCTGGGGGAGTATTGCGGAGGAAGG + anchor), 100 nM annealed; ATP concentration: 500 uM;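 further: ATP exposure 15 min at 22 °C before imaging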
EXPERIMENTAL READOUT: switch fluorescence ratio

TATGGGTGGC = 1.02
CGCTACGATG = 1.08
AGGGGAATGG = 0.997
AAGTTATCTG = 1.03
ATTACGTTTT = 0.989
TTGTGAATGT = 0.975
GAGTTATGGG = 0.996
TAAGGGAATC = 1.2
CAGAGGGCGG = 0.981
TAGGTTCTTT = 0.995
ACGGATCCTT = 1.03
TTCAAAGTCA = 1.02
GTTTAAGGTT = 1.08
AGCGGCTCGC = 1.01
AAAATTTGGT = 1.04
GGTGGGGTGC = 1.01
AAGGCGTAGT = 0.979
TCAGACGTTC = 1.07
